systemTested: 2-5A-dependent ribonuclease (Mus musculus)
procedureSummary: Molar concentration needed to give 50% prevention of 2-5A (Adenosine dependent endoribonuclease)
Assignment: determine reported Concentration for the given molecules.
Please give only the number in your answer, with no unit.

Requested field: Concentration. Item: Nc1ncnc2c1ncn2C1O[C@H](COP(=O)(O)O[C@H]2C(n3cnc4c(N)ncnc43)O[C@H](COP(=O)(O)O[C@H]3C(n4cnc5c(N)ncnc54)O[C@H](COP(=O)(O)O[C@H]4C(n5cnc6c(N)ncnc65)O[C@H](COP(=O)(O)O[C@H]5C(n6cnc7c(N)ncnc76)O[C@H](CO)[C@H]5O)[C@H]4O)[C@H]3O)[C@H]2O)[C@@H](O)[C@H]1O (some centres undefined)
7e-06

Next entry: Nc1ncnc2c1ncn2[C@@H]1O[C@H](COP(=O)(O)O[C@@H]2[C@H](O)[C@@H](COP(=O)(O)O[C@@H]3[C@H](O)[C@@H](COP(=O)(O)O)O[C@H]3n3cnc4c(N)ncnc43)O[C@H]2n2cnc3c(N)ncnc32)[C@@H](O)[C@H]1O (stereo in doubt; 2)
1e-06
